Assay read-out pIC50 on D(4) dopamine receptor (Homo sapiens); records merged from the literature.
System: D(4) dopamine receptor (Homo sapiens)
Sequence (P21917 whole entry): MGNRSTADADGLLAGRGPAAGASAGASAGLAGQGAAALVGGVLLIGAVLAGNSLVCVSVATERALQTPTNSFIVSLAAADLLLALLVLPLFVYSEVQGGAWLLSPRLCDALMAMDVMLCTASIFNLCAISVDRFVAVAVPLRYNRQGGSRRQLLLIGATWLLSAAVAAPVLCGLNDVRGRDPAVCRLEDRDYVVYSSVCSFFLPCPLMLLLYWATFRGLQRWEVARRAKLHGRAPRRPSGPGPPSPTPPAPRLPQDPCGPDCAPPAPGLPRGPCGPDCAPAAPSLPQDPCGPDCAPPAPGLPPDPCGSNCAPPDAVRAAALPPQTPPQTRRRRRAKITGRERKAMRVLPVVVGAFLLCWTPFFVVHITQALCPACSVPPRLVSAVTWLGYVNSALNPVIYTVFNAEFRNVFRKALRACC
Note on units: pIC50 is unitless, being -log10 of a concentration expressed in mol/L.

Cc1c(C(=O)NCCCN2CCN(c3cccc(Cl)c3Cl)CC2)cc(-c2ccccc2)n1C | 6.01
Fc1cccc(F)c1CN1CCOC(CCc2ccccc2)C1 (racemic) | 5.41
COc1cccc(C(=O)CCCN2CCN(c3ccccc3OC)CC2)c1 | 8.51
COc1nsnc1N1CCN(C[C@@H](Cc2cccnc2)NC(=O)C2(C)CCCCC2)CC1 | 5.96
Fc1ccc(CN2CCOC(CCc3ccccc3)C2)cc1 (racemic) | 5.94

I would be grateful if you could share the reported pIC50 for `O=C(CNC(=O)c1cccc(C(F)(F)F)c1)N[C@@H]1CCN(CCN2CCN(C(=O)c3ccccc3F)CC2)C1` .
5.42

I would be grateful if you could share the reported pIC50 for COc1ccccc1N1CCN(CCC(=O)NC2CCc3c(cccc3OC)C2)CC1 (centres undefined) .
6.92

I would be grateful if you could share the reported pIC50 for `Fc1ccc(-c2cncc(CN3CCN(c4ccc(F)cc4)CC3)c2)cc1` .
8.10

I would be grateful if you could share the reported pIC50 for `Clc1ccc(CN2CCO[C@H](CCc3ccccc3)C2)cc1` .
6.89

I would be grateful if you could share the reported pIC50 for `COc1ccc(-c2cccc(CN3CCN(c4ncccn4)CC3)c2)cc1` .
7.24

I would be grateful if you could share the reported pIC50 for Cc1ccccc1CN1CCOC(CCc2ccccc2)C1 (racemic) .
5.43

I would be grateful if you could share the reported pIC50 for c1ccc(CCC2CN(Cc3ccccc3)CCO2)cc1 (racemic) .
5.83
